- assayTarget: cynomolgus CD3εδ Fc heterodimer (Cy CD3ε Fc / CD3δ Fc-HIS) (cynomolgus) (UniProt Q95LI8)
- Sequence (chain, as listed by the source mutant, chain 1 of 2): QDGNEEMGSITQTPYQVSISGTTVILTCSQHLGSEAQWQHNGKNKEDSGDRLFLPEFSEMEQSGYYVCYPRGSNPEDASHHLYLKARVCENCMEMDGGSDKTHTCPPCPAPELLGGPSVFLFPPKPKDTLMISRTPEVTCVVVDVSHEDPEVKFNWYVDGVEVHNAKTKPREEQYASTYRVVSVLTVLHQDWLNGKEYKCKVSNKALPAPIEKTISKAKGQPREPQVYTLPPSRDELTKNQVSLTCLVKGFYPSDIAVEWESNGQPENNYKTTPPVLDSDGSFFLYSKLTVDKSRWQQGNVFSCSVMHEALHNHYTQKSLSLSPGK
- Sequence (Q95LI8 22-100, stated change not applied, chain 2 of 2): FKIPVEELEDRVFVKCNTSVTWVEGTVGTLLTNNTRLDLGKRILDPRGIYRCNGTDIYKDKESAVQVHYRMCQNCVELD
- measurementProtocol: BLI (ForteBio), pH 6.0
readout: kon (M⁻¹ s⁻¹)
Numbers only, in M⁻¹ s⁻¹.

binder	uom	kon
SAD10320_P03_D08 (antibody, V domains shown) VH: QVQLVQSGAEVKKPGASVKVSCKASGFNIKDYYMHWVRQAPGQRLEWMGWIDLENANTIYDAKFQGRVTITRDTSASTAYMELSSLRSEDTAVYYCARDAYGHQFYDVWGQGTLVTVSS VL: DIVMTQSPDSLAVSLGERATINCKSSQSLLNARTGKNYLAWYQQKPGQPPKLLIYWASTRESGVPDRFSGSGSGTDFTLTISSLQAEDVAVYYCKQSYHTRTFGGGTKVEIK	M⁻¹ s⁻¹	249000

Here is the next item to consider.
Short answer for SAD10320_P02_D06 (antibody, V domains shown) VH: QVQLVQSGAEVKKPGASVKVSCKASGFNIKDYYMHWVRQAPGQRPAWMGWIDLENANTIYDAKFQGRVTITRDTSASTAYMELSSLRSEDTAVYYCARDAYGHGFYDVWGQGTLVTVSS VL: DIVMTQSPDSLAVSLGERATINCKSSQSLLNARTGKNYLAWYQQKPGQPPKLLIYWASTRESGVPDRFSGSGSGTDFTLTISSLQAEDVAVYYCKQSYGHRTFGGGTKVEIK : kon was 265000

Recorded values, source patent US20220380463A1.
